- TEST_TARGET: SHP2 (Homo sapiens)
- Construct: SHP2 (full length, diluted to 100 pM final concentration in reaction buffer, BPS bioscience, US); purchased BPS bioscience, US
- Sequence (Q06124 1-593): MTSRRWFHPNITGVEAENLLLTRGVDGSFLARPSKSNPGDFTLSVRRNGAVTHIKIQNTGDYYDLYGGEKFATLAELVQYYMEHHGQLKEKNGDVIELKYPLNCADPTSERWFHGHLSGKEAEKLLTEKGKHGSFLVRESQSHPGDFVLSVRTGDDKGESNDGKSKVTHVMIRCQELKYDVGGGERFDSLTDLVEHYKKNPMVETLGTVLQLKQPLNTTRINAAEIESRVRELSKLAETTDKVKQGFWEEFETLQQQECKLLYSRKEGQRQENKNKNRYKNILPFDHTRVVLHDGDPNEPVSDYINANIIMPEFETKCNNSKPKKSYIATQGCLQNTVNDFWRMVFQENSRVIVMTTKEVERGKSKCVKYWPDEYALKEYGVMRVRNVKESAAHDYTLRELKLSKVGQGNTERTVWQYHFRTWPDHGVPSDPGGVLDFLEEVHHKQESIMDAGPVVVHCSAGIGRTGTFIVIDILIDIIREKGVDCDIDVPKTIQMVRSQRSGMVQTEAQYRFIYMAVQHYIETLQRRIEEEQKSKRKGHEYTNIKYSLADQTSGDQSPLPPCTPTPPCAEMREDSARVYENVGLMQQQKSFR
- PROTOCOL_SUMMARY: Phosphatase assay (PTPase assay, DiFMUP substrate)
- Assay type: biochemical
- EXPERIMENTAL_PARAMETERS: full length SHP2 100 pM activated with SHP2 activating peptide, DiFMUP 80 µM, 2 hours; read-out: PTPase assay (IC50)
- Procedure: IC50 values were measured using 6,8-difluoro-4-methylumbelliferyl phosphate (DiFMUP) as a substrate. The reaction was performed in a 384-well plate, and fluorescence measurement values were obtained using an EnVision plate reader from PerkinElmer. […] DiFMUP (80 µM) was added to the reaction and incubated for a total of 2 hours to allow for the reaction to proceed. Thereafter, fluorescence (340 nm excitation, 450 nm emission) values were measured. […]
Measured IC50, listed per entry for reference.
MEASURED_PROPERTY: IC50

[[record]]
compound = "Cn1cnc2ccc(Sc3cnc(N4CCC5(CC4)Cc4ccccc4[C@H]5N)cn3)c(Cl)c2c1=O [Example 7]"
test_target = "SHP2 (Homo sapiens)"
measured_property = "IC50"
reported_measurement = "< 3 nM"

[[record]]
compound = "Cn1cnc2ccc(Sc3ncc(N4CCC5(CC4)Cc4ccccc4[C@H]5N)nc3N)c(Cl)c2c1=O [Example 10]"
test_target = "SHP2 (Homo sapiens)"
measured_property = "IC50"
reported_measurement = "< 3 nM"

[[record]]
compound = "Cn1ccc2ccc(Sc3cnc(N4CCC5(CC4)Cc4ccccc4[C@H]5N)cn3)c(Cl)c2c1=O [Example 41]"
test_target = "SHP2 (Homo sapiens)"
measured_property = "IC50"
reported_measurement = "< 3 nM"

[[record]]
compound = "COC1(Cn2cnc3ccc(Sc4cnc(N5CCC6(CC5)CO[C@@H](C)[C@H]6N)cn4)c(Cl)c3c2=O)CC1 [Example 20]"
test_target = "SHP2 (Homo sapiens)"
measured_property = "IC50"
reported_measurement = "3 to 100 nM"

[[record]]
compound = "COC(C)(C)Cn1ccc2ccc(Sc3cnc(N4CCC5(CC4)Cc4ccccc4[C@H]5N)cn3)cc2c1=O [Example 44]"
test_target = "SHP2 (Homo sapiens)"
measured_property = "IC50"
reported_measurement = "3 to 100 nM"

[[record]]
compound = "CC(C)(C)Cn1cnc2ccc(Sc3cnc(N4CCC5(CC4)Cc4ncsc4[C@H]5N)cn3)c(Cl)c2c1=O [Example 5]"
test_target = "SHP2 (Homo sapiens)"
measured_property = "IC50"
reported_measurement = "< 3 nM"

[[record]]
compound = "COC(F)(F)Cn1cnc2ccc(Sc3cnc(N4CCC5(CC4)CO[C@@H](C)[C@H]5N)cn3)c(Cl)c2c1=O [Example 19]"
test_target = "SHP2 (Homo sapiens)"
measured_property = "IC50"
reported_measurement = "< 3 nM"

[[record]]
compound = "COC(C)Cn1c(C)nc2ccc(Sc3cnc(N4CCC5(CC4)CO[C@@H](C)[C@H]5N)cn3)c(Cl)c2c1=O (stereo partly shown) [Example 39]"
test_target = "SHP2 (Homo sapiens)"
measured_property = "IC50"
reported_measurement = "< 3 nM"

[[record]]
compound = "COCCn1cnc2ccc(Sc3ncc(N4CCC5(CC4)Cc4ccccc4[C@H]5N)nc3N)c(Cl)c2c1=O [Example 8]"
test_target = "SHP2 (Homo sapiens)"
measured_property = "IC50"
reported_measurement = "< 3 nM"

[[record]]
compound = "CC(C)(O)Cn1cnc2ccc(Sc3ncc(N4CCC5(CC4)Cc4ccccc4[C@H]5N)nc3N)c(Cl)c2c1=O [Example 11]"
test_target = "SHP2 (Homo sapiens)"
measured_property = "IC50"
reported_measurement = "< 3 nM"

